# Target: NET (Homo sapiens, UniProt P23975)
# Sequence (P23975 whole entry, the tested form may be a part): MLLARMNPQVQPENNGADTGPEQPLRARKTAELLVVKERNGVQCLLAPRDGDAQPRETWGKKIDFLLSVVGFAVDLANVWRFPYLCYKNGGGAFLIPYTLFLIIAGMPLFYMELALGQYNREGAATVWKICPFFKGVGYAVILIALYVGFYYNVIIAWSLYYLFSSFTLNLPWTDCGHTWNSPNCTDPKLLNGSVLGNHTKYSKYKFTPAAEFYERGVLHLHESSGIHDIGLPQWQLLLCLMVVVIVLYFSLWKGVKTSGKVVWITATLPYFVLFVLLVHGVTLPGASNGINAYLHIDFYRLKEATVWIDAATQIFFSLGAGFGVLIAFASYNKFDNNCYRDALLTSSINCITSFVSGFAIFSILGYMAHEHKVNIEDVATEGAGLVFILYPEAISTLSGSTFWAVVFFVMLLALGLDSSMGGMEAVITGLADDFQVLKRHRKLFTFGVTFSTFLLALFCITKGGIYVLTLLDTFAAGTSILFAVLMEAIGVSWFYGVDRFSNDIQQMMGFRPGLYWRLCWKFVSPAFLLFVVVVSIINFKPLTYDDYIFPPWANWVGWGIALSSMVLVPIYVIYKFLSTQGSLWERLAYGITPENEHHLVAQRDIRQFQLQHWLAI
# Protocol Description: Release (superfusion) assay, NET mediated [3H]MPP+ release
# Details: read-out: Emax [95%-CI], NET mediated [3H]MPP+ release
Measurement Name: Emax (%)
Express your answer in %, writing the number without its unit.

// worked examples, Emax included
>>> print(df.to_string())
                                   molecule  obs_value
0  CC(N)Cc1ccc2c(c1)SCO2 (stereo not shown)       99.6
1  CNC(C)Cc1ccc2c(c1)OCO2 (stereo not shown) [MDMA, 3,4-Methylenedioxymethamphetamine, reference compound]        111
2  CNC(C)Cc1ccc2c(c1)SCO2 (stereo not shown)        104

Quick check: Emax of CC(N)Cc1ccc2c(c1)OCO2 (stereo not shown) [MDA, 3,4-Methylenedioxyamphetamine, reference compound] ?
126

====

# Target: NET (Homo sapiens, UniProt P23975)
# Protocol Description: Uptake inhibition assay, [3H]MPP+ uptake in HEK293 cells
# Type: cell-based
# Parameters: expressed in transfected cells
IC50 overview
Dear colleague, please return just the value in µM, with no unit written.

>>> print(df.to_string())
                                   molecule  measurement_name  unit_tag  obs_value
0  CC(N)Cc1ccc2c(c1)OCO2 (centres unmarked) [MDA, 3,4-Methylenedioxyamphetamine, reference compound]              IC50        µM       3.33

Next molecule, please.
IC50 lookup needed for CNC(C)Cc1ccc2c(c1)OCO2 (centres unmarked) [MDMA, 3,4-Methylenedioxymethamphetamine, reference compound] , thanks.
3.17

====

# Protocol Description: Metabolic stability, substrate depletion in pooled human liver microsomes
# Details: human, pooled human liver microsomes
Measurement Name: microsomal CLint at 0.5 μM (µL/min/mg)
Answer with a number only, understood to be in µL/min/mg.

In [3]: df
Out[3]:
                                   molecule  obs_value
0  CC(N)Cc1ccc2c(c1)SCO2 (centres unmarked) [SDA, 1-(1,3-benzoxathiol-5-yl)propan-2-amine]       11.4

Data request, read-out microsomal CLint at 0.5 μM, for CNC(C)Cc1ccc2c(c1)SCO2 (centres unmarked) [SDMA]
9.8

====

Entries and their pIC50 values follow.
# Target: NET (Homo sapiens, UniProt P23975)
# Protocol Description: Uptake inhibition assay, [3H]MPP+ uptake in HEK293 cells
# Assay type: cell-based
# Set-up: expressed in transfected cells
# Details: HEK293 cells, 0.02 μM [3H]MPP+; mean ± SD; read-out: IC50 ± SD, [3H]MPP+ uptake NET
The meaning of pIC50 here: minus log10 of the concentration in molar units.

In [3]: df
Out[3]:
                                   compound  obs_value
0  CC(N)Cc1ccc2c(c1)SCO2 (centres unmarked) [SDA, 1-(1,3-benzoxathiol-5-yl)propan-2-amine]       6.07

Let's switch to this compound now.
For CNC(C)Cc1ccc2c(c1)SCO2 (centres unmarked) [SDMA] , what is its reported pIC50?
6.11

====

# Target: SERT (Homo sapiens)
# Sequence (P31645 whole entry, the tested form may be a part): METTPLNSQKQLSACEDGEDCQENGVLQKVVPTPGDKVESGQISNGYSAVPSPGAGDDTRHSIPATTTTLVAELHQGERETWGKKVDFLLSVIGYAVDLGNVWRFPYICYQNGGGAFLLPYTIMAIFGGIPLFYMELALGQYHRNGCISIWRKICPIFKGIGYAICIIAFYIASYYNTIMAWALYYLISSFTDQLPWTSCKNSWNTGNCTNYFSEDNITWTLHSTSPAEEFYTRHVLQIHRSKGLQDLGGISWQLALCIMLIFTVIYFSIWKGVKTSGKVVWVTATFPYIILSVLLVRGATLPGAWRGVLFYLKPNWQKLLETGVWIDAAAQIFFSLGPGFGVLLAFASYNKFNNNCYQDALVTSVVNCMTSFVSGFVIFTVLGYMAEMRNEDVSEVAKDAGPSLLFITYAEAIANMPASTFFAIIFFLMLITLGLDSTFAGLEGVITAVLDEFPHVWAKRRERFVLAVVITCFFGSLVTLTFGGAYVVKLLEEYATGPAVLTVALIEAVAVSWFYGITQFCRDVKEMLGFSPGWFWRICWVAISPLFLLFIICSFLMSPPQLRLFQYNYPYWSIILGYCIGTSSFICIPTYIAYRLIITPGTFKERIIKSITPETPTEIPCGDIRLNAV
# Protocol Description: Release (superfusion) assay, SERT mediated [3H]5-HT efflux
# Details: read-out: Emax [95%-CI], SERT mediated [3H]5-HT efflux
Quick reference: Emax of the listed items.

Example molecules with recorded Emax:
In [3]: df
Out[3]:
                                   molecule  measurement_name  obs_value
0  CC(N)Cc1ccc2c(c1)OCO2 (stereo not shown) [MDA, 3,4-Methylenedioxyamphetamine, reference compound]              Emax      45.5%
1  CNC(C)Cc1ccc2c(c1)OCO2 (stereo not shown) [MDMA, 3,4-Methylenedioxymethamphetamine, reference compound]              Emax      39.3%
2  CNC(C)Cc1ccc2c(c1)SCO2 (stereo not shown) [SDMA]              Emax      71.5%

Now for a further molecule.
Field request: Emax | item: CC(N)Cc1ccc2c(c1)SCO2 (stereo not shown) [SDA, 1-(1,3-benzoxathiol-5-yl)propan-2-amine]
70.5%
